Ref: ChEMBL document CHEMBL5729675

- Tgt: Ribonucleotide reductase (Homo sapiens, UniProt P23921+Q7LG56)
- Sequence (P23921 whole entry, looked up): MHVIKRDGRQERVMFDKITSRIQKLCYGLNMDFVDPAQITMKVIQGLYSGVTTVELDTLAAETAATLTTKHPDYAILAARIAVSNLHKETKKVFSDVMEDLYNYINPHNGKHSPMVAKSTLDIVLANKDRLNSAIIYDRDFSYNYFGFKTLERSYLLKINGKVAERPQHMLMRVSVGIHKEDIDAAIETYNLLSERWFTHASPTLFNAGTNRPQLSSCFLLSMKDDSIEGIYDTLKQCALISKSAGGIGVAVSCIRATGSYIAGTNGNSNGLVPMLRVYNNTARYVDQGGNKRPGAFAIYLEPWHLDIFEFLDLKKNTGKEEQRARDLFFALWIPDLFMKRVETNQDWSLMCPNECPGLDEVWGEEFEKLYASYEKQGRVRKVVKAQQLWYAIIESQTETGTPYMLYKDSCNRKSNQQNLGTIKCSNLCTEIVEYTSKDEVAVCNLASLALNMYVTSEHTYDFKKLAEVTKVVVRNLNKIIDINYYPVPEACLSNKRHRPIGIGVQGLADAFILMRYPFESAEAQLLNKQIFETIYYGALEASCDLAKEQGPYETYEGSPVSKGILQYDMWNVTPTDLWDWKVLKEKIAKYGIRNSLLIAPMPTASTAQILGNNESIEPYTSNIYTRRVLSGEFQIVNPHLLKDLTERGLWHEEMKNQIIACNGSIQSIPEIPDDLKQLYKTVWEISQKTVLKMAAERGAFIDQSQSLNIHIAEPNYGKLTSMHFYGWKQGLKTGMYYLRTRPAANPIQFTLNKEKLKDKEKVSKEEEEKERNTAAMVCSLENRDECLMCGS
- Sequence (Q7LG56 whole entry, looked up): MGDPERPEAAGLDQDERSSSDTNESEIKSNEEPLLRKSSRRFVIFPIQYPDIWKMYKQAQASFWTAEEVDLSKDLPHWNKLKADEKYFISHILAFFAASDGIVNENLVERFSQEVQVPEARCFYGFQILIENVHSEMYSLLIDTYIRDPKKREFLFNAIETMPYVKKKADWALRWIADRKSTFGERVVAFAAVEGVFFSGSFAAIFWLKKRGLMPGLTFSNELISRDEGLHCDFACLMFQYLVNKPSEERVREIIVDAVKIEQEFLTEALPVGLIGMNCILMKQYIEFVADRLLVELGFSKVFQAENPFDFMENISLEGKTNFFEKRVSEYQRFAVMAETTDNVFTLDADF
- Protocol description: Human RNR Inhibition Effect: The inhibitory activity against the ribonucleotide reduction reaction (hereinafter referred to as RNR reaction) of the test compound was determined by measuring the formation of deoxycytidine diphosphate (hereinafter referred to as dCDP) from cytidine diphosphate (hereinafter referred to as CDP) by the following method.Human M1 subunit and human M2 subunit (mutant …
Endpoint: IC50
Your reply should be a number followed by the unit it is expressed in.

chemical_string=Cc1ccc(F)c([C@@H](C)[C@H](NS(=O)(=O)c2ccc3[nH]ncc3c2)c2n[nH]c(=O)o2)c1C readout_value="410 nM"
chemical_string=C[C@H](c1cccc2c1CCC2)[C@H](NS(=O)(=O)c1ccc(F)c(C(C)(C)O)c1F)c1n[nH]c(=O)o1 readout_value="550 nM"
chemical_string=COc1cc(Cl)ccc1S(=O)(=O)N[C@H](c1n[nH]c(=O)o1)[C@H](C)c1c(F)ccc(-c2ccc(Cl)nc2)c1C readout_value="340 nM"

The record that follows has no IC50 shown yet.
## Task Return reported IC50; argument: `Cc1ccc(F)c([C@@H](C)[C@H](NS(=O)(=O)c2ccc(Cl)c(S(N)(=O)=O)c2)c2n[nH]c(=O)o2)c1C`
## Result 810 nM

###

- Tgt: Ribonucleotide reductase (Homo sapiens, UniProt P23921+Q7LG56)
- Protocol description: Human RNR Inhibition Effect: The inhibitory activity against the ribonucleotide reduction reaction (hereinafter referred to as RNR reaction) of the test compound was determined by measuring the formation of deoxycytidine diphosphate (hereinafter referred to as dCDP) from cytidine diphosphate (hereinafter referred to as CDP) by the following method.Human M1 subunit and human M2 subunit (mutant …
Endpoint: IC50 (µM)
Write down the numeric answer in µM and omit the unit.

chemical_string=COc1cc(C(N)=O)ccc1S(=O)(=O)N[C@H](c1n[nH]c(=O)o1)[C@H](C)c1c(F)ccc(C)c1C tgt="Ribonucleotide reductase (Homo sapiens, UniProt P23921+Q7LG56)" endpoint=IC50 readout_value=0.42

## Task Return reported IC50; argument: `CNC(=O)c1nc(S(=O)(=O)N[C@H](c2n[nH]c(=O)o2)[C@H](C)c2c(F)ccc(C)c2C)ccc1Cl`
## Result 0.06

## Task Return reported IC50; argument: `Cc1ccc(F)c([C@@H](C)[C@H](NS(=O)(=O)c2cc(C(=O)N3CCOCC3)ccc2C(N)=O)c2n[nH]c(=O)o2)c1C`
## Result 0.11

## Task Return reported IC50; argument: `Cc1ccc(F)c([C@@H](C)[C@H](NS(=O)(=O)c2ccccc2C#N)c2n[nH]c(=O)o2)c1C`
## Result 0.64

###

- Tgt: Ribonucleotide reductase (Homo sapiens, UniProt P23921+Q7LG56)
- Protocol description: Human RNR Inhibition Effect: The inhibitory activity against the ribonucleotide reduction reaction (hereinafter referred to as RNR reaction) of the test compound was determined by measuring the formation of deoxycytidine diphosphate (hereinafter referred to as dCDP) from cytidine diphosphate (hereinafter referred to as CDP) by the following method.Human M1 subunit and human M2 subunit (mutant …
Listed below: IC50 values for each entry.
Write down the numeric answer in nM and omit the unit.

Answered examples (6):
chemical_string=COc1c(S(=O)(=O)N[C@H](c2n[nH]c(=O)o2)[C@H](C)c2c(F)ccc(C)c2C)ccc(Cl)c1C(C)=O readout_value=110
chemical_string=Cc1ccc(F)c([C@@H](C)[C@H](NS(=O)(=O)c2ccc(Cl)c(C(=O)N3CCC4(CCC4)C3)n2)c2n[nH]c(=O)o2)c1C readout_value=180
chemical_string=Cc1ccc(F)c([C@@H](C)[C@H](NS(=O)(=O)c2ccc(Cl)c3c2OCC(=O)N3C)c2n[nH]c(=O)o2)c1C readout_value=100
chemical_string=Cc1ccc(F)c([C@@H](C)[C@H](NS(=O)(=O)c2ccc(Cl)c(C(=O)N3CCC4(CC3)COC4)n2)c2n[nH]c(=O)o2)c1C readout_value=80
chemical_string=Cc1ccc(F)c([C@@H](C)[C@H](NS(=O)(=O)c2ccc(Cl)c(C(=O)O)n2)c2n[nH]c(=O)o2)c1C readout_value=190
chemical_string=CCc1ccc(F)c([C@@H](C)[C@H](NS(=O)(=O)c2ccc(Br)cc2C(N)=O)c2n[nH]c(=O)o2)c1C readout_value=100

## Task Return reported IC50; argument: `C[C@H](c1cc(F)cc2ccccc12)[C@H](NS(=O)(=O)c1ccc(Cl)cc1C(N)=O)c1n[nH]c(=O)o1`
## Result 600

## Task Return reported IC50; argument: `Cc1c(C2CC2)ccc(F)c1[C@@H](C)[C@H](NS(=O)(=O)c1ccc(Cl)cc1C(N)=O)c1n[nH]c(=O)o1`
## Result 160

## Task Return reported IC50; argument: `COc1cc(Cl)ccc1S(=O)(=O)N[C@H](c1n[nH]c(=O)o1)[C@H](C)c1c(F)ccc(-c2cccnc2)c1C`
## Result 340
